Origin of the recorded values: the supplement of paper PMC10567573

# protein stability index per record follows
B1: FADS1 (parent)
chain: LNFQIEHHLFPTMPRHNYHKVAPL

Variants of: B1
Assay: protein stability index of a GFP-peptide fusion (GPS, HEK-293T) (PSI 1-6); higher = more stable;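 note: lentivirally expressed fusions sorted by FACS into six bins by GFP to DsRed ratio, PSI derived from sequencing read proportions per bin multiplied by bin number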
Settings: c terminus: a fixed tail appended

# mutant designation, protein stability index
rows = [
    ("L24V", 1.5),
    ("Q4T", 2.74),
    ("N2R", 2.09),
    ("Q4R", 1.6),
    ("Y18Q", 2.17),
    ("A22K", 1.89),
    ("H16M", 4.22),
    ("T12S", 2.65),
    ("N2H", 2.37),
    ("R15T", 2.55),
    ("R15D", 1.98),
    ("F3A", 2.58),
    ("T12K", 1.92),
    ("L9Y", 2.1),
    ("N17L", 3.08),
    ("A22M", 3.28),
    ("I5V", 2.73),
    ("F10A", 2.17),
    ("H19W", 3.52),
    ("I5G", 2.01),
    ("H8M", 2.14),
    ("R15V", 2.01),
    ("L24P", 2.3),
    ("P23N", 2.09),
    ("N2T", 2.76),
    ("A22H", 1.89),
    ("L1H", 2.1),
    ("A22G", 1.05),
    ("L1W", 3.02),
    ("A22C", 1.65),
    ("L24M", 1.81),
    ("P11F", 2.77),
    ("I5A", 1.83),
    ("Y18F", 2.72),
    ("Q4G", 2.08),
    ("N2A", 2.02),
    ("N2S", 1.88),
    ("Y18V", 1.51),
    ("Q4I", 3.5),
    ("Q4A", 1.44),
    ("M13I", 2.35),
    ("I5D", 2.4),
    ("F10D", 1.74),
    ("N17R", 2.48),
    ("T12H", 1.46),
    ("L9P", 1.5),
]
